Consider the following IC50 data for BRD4 (Homo sapiens (Human)), collected from several reports.
Reported Endpoint: IC50

[[record]]
molecule = "Cc1noc(C)c1-c1cc(F)c2c3ncc(C(C)(C)O)cc3n(C(c3ccccc3)C3CCOCC3)c2c1 (stereo not shown)"
endpoint_value = "< 0.002 µM"

[[record]]
molecule = "Cc1cc(N2C(=O)c3nc(C4CC4)n(C(C)(C)C)c3C2c2ccc(Cl)cc2)cn(C)c1=O (stereo not shown)"
endpoint_value = "0.1 µM"

[[record]]
molecule = "Cc1cc(N2C(=O)c3nc(C4=CCOCC4)n(C(C)C)c3C2c2ccc(Cl)cc2)cn2c(C)nnc12 (stereo not shown)"
endpoint_value = "0.016 µM"

[[record]]
molecule = "Cc1nn(C[C@H](O)C(F)(F)F)c2c1[C@@H](c1ccc(Cl)cc1)N(c1cc(C)c3nnc(C)n3c1)C2=O"
endpoint_value = "0.04 µM"

[[record]]
molecule = "Cc1noc(C)c1-c1cnc2c3ccc(O)nc3n(C(c3ccccc3)C3CCOCC3)c2c1 (stereo not shown)"
endpoint_value = "< 0.002 µM"

[[record]]
molecule = "COc1ncc(-c2cc3c(n2C)C(c2ccc(Cl)cc2)N(c2cc(Cl)c(=O)n(C)c2)C3=O)c(OC)n1 (stereo not shown)"
endpoint_value = "0.047 µM"

[[record]]
molecule = "Cc1cc(N2C(=O)c3cc(C4=CCOCC4)n(C)c3C2c2ccc(Cl)cc2)cn2c(C)nnc12 (stereo not shown)"
endpoint_value = "0.036 µM"

